Where do the numbers come from? From paper PMC7248905.

assay.procedure: Pharmacokinetic study in rats after intravenous and oral administration
Assay type: in vivo, Sprague Dawley rats
condition.context: male, Sprague Dawley, plasma; rat, oral, 1 mg/kg; read-out: Cmax (maximum plasma concentration)
measure: Cmax (ng/mL)

compound="O=C1Nc2ccc(F)cc2C1=C1Nc2ccc(F)cc2C1=NOCCN1CCNCC1 [LDD-2614]" readout_number=5.96

----------
assay.procedure: Pharmacokinetic study in rats after intravenous and oral administration
Type: in vivo, Sprague Dawley rats
condition.context: male, Sprague Dawley, plasma; rat, oral, 1 mg/kg; read-out: F (bioavailability)
measure: bioavailability

compound="O=C1Nc2ccc(F)cc2C1=C1Nc2ccc(F)cc2C1=NOCCN1CCNCC1 [LDD-2614]" result=11.7%

----------
assay.procedure: Pharmacokinetic study in rats after intravenous and oral administration
Format: in vivo, Sprague Dawley rats
condition.context: male, Sprague Dawley, plasma; rat, oral, 5 mg/kg, n = 6, mean ± SD
measure: AUC(0-t)

structure_smiles=O=C1Nc2ccc(F)cc2C1=C1Nc2ccc(F)cc2C1=NOCCN1CCNCC1 result="390 ng·h/mL"

----------
assay.procedure: Pharmacokinetic study in rats after intravenous and oral administration
Type: in vivo, Sprague Dawley rats
condition.context: male, Sprague Dawley, plasma; rat, oral, 20 mg/kg; read-out: Cmax (maximum plasma concentration)
measure: Cmax (ng/mL)

structure_smiles=O=C1Nc2ccc(F)cc2C1=C1Nc2ccc(F)cc2C1=NOCCN1CCNCC1 measure_unit=ng/mL readout_number=120

----------
assay.procedure: Pharmacokinetic study in rats after intravenous and oral administration
Assay type: in vivo, Sprague Dawley rats
condition.context: male, Sprague Dawley, plasma; rat, oral, 1 mg/kg, n = 6, mean ± SD
measure: AUC(0-t)

structure_smiles=O=C1Nc2ccc(F)cc2C1=C1Nc2ccc(F)cc2C1=NOCCN1CCNCC1 measure=AUC(0-t) result="73.8 ng·h/mL"

----------
assay.procedure: Pharmacokinetic study in rats after intravenous and oral administration
Format: in vivo, Sprague Dawley rats
condition.context: male, Sprague Dawley, plasma; rat, intravenous, 1 mg/kg, n = 7, mean ± SD
measure: AUC(0-t) (ng·h/mL)

structure_smiles=O=C1Nc2ccc(F)cc2C1=C1Nc2ccc(F)cc2C1=NOCCN1CCNCC1 readout_number=635

----------
assay.procedure: Pharmacokinetic study in rats after intravenous and oral administration
Type: in vivo, Sprague Dawley rats
condition.context: male, Sprague Dawley, plasma; rat, intravenous, 1 mg/kg; read-out: T1/2 (terminal half-life)
measure: half-life (h)

structure_smiles=O=C1Nc2ccc(F)cc2C1=C1Nc2ccc(F)cc2C1=NOCCN1CCNCC1 measure=half-life readout_number=4.91

----------
assay.procedure: Pharmacokinetic study in rats after intravenous and oral administration
Format: in vivo, Sprague Dawley rats
condition.context: male, Sprague Dawley, plasma; rat, intravenous, 5 mg/kg; read-out: MRT (mean residence time) (converted)
measure: MRT (h)

structure_smiles=O=C1Nc2ccc(F)cc2C1=C1Nc2ccc(F)cc2C1=NOCCN1CCNCC1 measure=MRT measure_unit=h readout_number=4.76

----------
assay.procedure: Pharmacokinetic study in rats after intravenous and oral administration
Assay type: in vivo, Sprague Dawley rats
condition.context: male, Sprague Dawley, plasma; rat, intravenous, 5 mg/kg; read-out: T1/2 (terminal half-life)
Description: The validated LC-MS/MS method was successfully implemented to quantify LDD-2614 in Sprague Dawley rat plasma to perform a pharmacokinetic study on LDD-2614 in rats after oral and intravenous administration. […] All data are expressed as mean ± standard deviation. The pharmacokinetic parameters were calculated using Phoenix WinNonlin 2.1 (Pharmasight, Mountain View, CA, USA). […]
measure: half-life (h)

structure_smiles=O=C1Nc2ccc(F)cc2C1=C1Nc2ccc(F)cc2C1=NOCCN1CCNCC1 measure=half-life readout_number=3.31

----------
assay.procedure: Pharmacokinetic study in rats after intravenous and oral administration
Format: in vivo, Sprague Dawley rats
condition.context: male, Sprague Dawley, plasma; rat, oral, 20 mg/kg, n = 5, mean ± SD
measure: AUC(0-t)

structure_smiles=O=C1Nc2ccc(F)cc2C1=C1Nc2ccc(F)cc2C1=NOCCN1CCNCC1 result="1020 ng·h/mL"

----------
assay.procedure: Pharmacokinetic study in rats after intravenous and oral administration
Format: in vivo, Sprague Dawley rats
condition.context: male, Sprague Dawley, plasma; rat, oral, 20 mg/kg; read-out: F (bioavailability)
measure: bioavailability

molecule="O=C1Nc2ccc(F)cc2C1=C1Nc2ccc(F)cc2C1=NOCCN1CCNCC1 [LDD-2614]" result=7.1%

----------
assay.procedure: Pharmacokinetic study in rats after intravenous and oral administration
Type: in vivo, Sprague Dawley rats
condition.context: male, Sprague Dawley, plasma; rat, intravenous, 1 mg/kg; read-out: MRT (mean residence time) (converted)
Description: The validated LC-MS/MS method was successfully implemented to quantify LDD-2614 in Sprague Dawley rat plasma to perform a pharmacokinetic study on LDD-2614 in rats after oral and intravenous administration. […] All data are expressed as mean ± standard deviation. The pharmacokinetic parameters were calculated using Phoenix WinNonlin 2.1 (Pharmasight, Mountain View, CA, USA). […]
measure: MRT (h)

structure_smiles=O=C1Nc2ccc(F)cc2C1=C1Nc2ccc(F)cc2C1=NOCCN1CCNCC1 readout_number=4.53

----------
assay.procedure: Pharmacokinetic study in rats after intravenous and oral administration
Assay type: in vivo, Sprague Dawley rats
condition.context: male, Sprague Dawley, plasma; rat, oral, doses 1–20 mg/kg, compared with intravenous AUClast; read-out: bioavailability after oral administration
measure: bioavailability

structure_smiles=O=C1Nc2ccc(F)cc2C1=C1Nc2ccc(F)cc2C1=NOCCN1CCNCC1 measure=bioavailability result="7.1 to 11.7%"

----------
assay.procedure: Pharmacokinetic study in rats after intravenous and oral administration
Assay type: in vivo, Sprague Dawley rats
condition.context: male, Sprague Dawley, plasma; rat, intravenous, dose range 1–20 mg/kg, terminal phase; read-out: half-life (T1/2)
measure: half-life

molecule="O=C1Nc2ccc(F)cc2C1=C1Nc2ccc(F)cc2C1=NOCCN1CCNCC1 [LDD-2614]" result="3 to 4 h"

----------
assay.procedure: Pharmacokinetic study in rats after intravenous and oral administration
Type: in vivo, Sprague Dawley rats
condition.context: male, Sprague Dawley, plasma; rat, intravenous, 5 mg/kg, n = 5, mean ± SD
measure: AUC(0-t)

structure_smiles=O=C1Nc2ccc(F)cc2C1=C1Nc2ccc(F)cc2C1=NOCCN1CCNCC1 measure=AUC(0-t) result="3510 ng·h/mL"

----------
assay.procedure: Pharmacokinetic study in rats after intravenous and oral administration
Type: in vivo, Sprague Dawley rats
condition.context: male, Sprague Dawley, plasma; rat, intravenous, 20 mg/kg, n = 6, mean ± SD
measure: AUC(0-t) (ng·h/mL)

structure_smiles=O=C1Nc2ccc(F)cc2C1=C1Nc2ccc(F)cc2C1=NOCCN1CCNCC1 readout_number=14400

----------
assay.procedure: Pharmacokinetic study in rats after intravenous and oral administration
Format: in vivo, Sprague Dawley rats
condition.context: male, Sprague Dawley, plasma; rat, intravenous, 5 mg/kg; read-out: Vd,ss (apparent volume of distribution at steady state)
measure: Vd (L/kg)

structure_smiles=O=C1Nc2ccc(F)cc2C1=C1Nc2ccc(F)cc2C1=NOCCN1CCNCC1 readout_number=6.42

----------
assay.procedure: Pharmacokinetic study in rats after intravenous and oral administration
Format: in vivo, Sprague Dawley rats
condition.context: male, Sprague Dawley, plasma; rat, intravenous, 20 mg/kg; read-out: Vd,ss (apparent volume of distribution at steady state)
measure: Vd (L/kg)

structure_smiles=O=C1Nc2ccc(F)cc2C1=C1Nc2ccc(F)cc2C1=NOCCN1CCNCC1 measure=Vd readout_number=8.67

----------
assay.procedure: Pharmacokinetic study in rats after intravenous and oral administration
Type: in vivo, Sprague Dawley rats
condition.context: male, Sprague Dawley, plasma; rat, oral, 5 mg/kg; read-out: F (bioavailability)
measure: bioavailability (%)

compound="O=C1Nc2ccc(F)cc2C1=C1Nc2ccc(F)cc2C1=NOCCN1CCNCC1 [LDD-2614]" readout_number=11.1

----------
assay.procedure: Pharmacokinetic study in rats after intravenous and oral administration
Format: in vivo, Sprague Dawley rats
condition.context: male, Sprague Dawley, plasma; rat, intravenous, 1 mg/kg; read-out: Vd,ss (apparent volume of distribution at steady state)
measure: Vd (L/kg)

structure_smiles=O=C1Nc2ccc(F)cc2C1=C1Nc2ccc(F)cc2C1=NOCCN1CCNCC1 readout_number=9.62
